Entries and their Inhibition (%) values follow.
test-target: LuxR (Aliivibrio fischeri, UniProt P35327)
Construct: a Δ-luxI derivative of V. fischeri ES114, in which the native lux operon behaves as the bioluminescent reporter; endogenous in cells; host or cells: V. fischeri ES114 (Δ-luxI)
Sequence (P35327 whole entry): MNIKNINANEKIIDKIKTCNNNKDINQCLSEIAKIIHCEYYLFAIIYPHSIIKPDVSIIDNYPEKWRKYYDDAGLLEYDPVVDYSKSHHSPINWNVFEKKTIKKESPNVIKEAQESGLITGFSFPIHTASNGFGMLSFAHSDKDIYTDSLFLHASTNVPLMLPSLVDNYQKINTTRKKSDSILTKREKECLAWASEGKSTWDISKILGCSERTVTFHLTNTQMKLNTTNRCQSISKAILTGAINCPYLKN
experiment-summary: cell-based
Type: cell-based, Vibrio fischeri
protocol-conditions: V. fischeri-LuxR; Library C primary antagonism screen
Description: Luminescence assays. For agonism assays, an appropriate amount of AHL stock solution was added into a 96-well plate. […] Luminescence was measured using a multilabel plate reader and normalized to cell density. […] Vibrio fischeri assay procedures. […] Luminescence then was measured and normalized to cell density per well. […] IC50 and EC50 values were calculated using GraphPad Prism software using a sigmoidal curve fit. […]
Value expressed in %; do not type the unit.

[
  {
    "smiles-data": "CCOc1ccc(CC(=O)N[C@H]2CCOC2=O)cc1",
    "test-target": "LuxR (Aliivibrio fischeri, UniProt P35327)",
    "Inhibition (%)": 55
  }
]

Specify Inhibition (%) for O=C(Cc1ccc(-c2ccccc2)cc1)N[C@H]1CCOC1=O and stop.
79

Specify Inhibition (%) for O=C(Cc1ccc(C(F)(F)F)cc1)N[C@H]1CCOC1=O and stop.
78

Specify Inhibition (%) for COc1ccc(CC(=O)N[C@H]2CCOC2=O)cc1 and stop.
57

###

test-target: LasR (Pseudomonas aeruginosa, UniProt P25084)
Construct: expressed in transfected cells; host or cells: E. coli DH5α (pJN105L pSC11), arabinose-induced
Sequence (P25084 whole entry): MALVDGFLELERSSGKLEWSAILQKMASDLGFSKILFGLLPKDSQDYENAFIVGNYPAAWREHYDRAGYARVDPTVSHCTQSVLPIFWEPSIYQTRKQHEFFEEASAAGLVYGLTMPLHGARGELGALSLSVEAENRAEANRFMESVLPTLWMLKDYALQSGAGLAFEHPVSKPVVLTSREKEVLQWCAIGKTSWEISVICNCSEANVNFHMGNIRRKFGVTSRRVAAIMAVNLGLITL
experiment-summary: cell-based
Assay type: cell-based
Entries and their IC50 values follow.
Reply with the number and its unit after it.

[
  {
    "compound": "CCCCCCCCCC(=O)NC1CCOC1=O (centres unmarked)",
    "test-value": "250 nM"
  }
]

Specify IC50 for O=C(Cc1ccc(Br)cc1)N[C@H]1CCOC1=O [A17, 4-bromo-phenylacetanoyl HL, reference compound] and stop.
3890 nM

###

test-target: QscR (Pseudomonas aeruginosa, UniProt G3XD77)
Sequence (G3XD77 entry or part of it): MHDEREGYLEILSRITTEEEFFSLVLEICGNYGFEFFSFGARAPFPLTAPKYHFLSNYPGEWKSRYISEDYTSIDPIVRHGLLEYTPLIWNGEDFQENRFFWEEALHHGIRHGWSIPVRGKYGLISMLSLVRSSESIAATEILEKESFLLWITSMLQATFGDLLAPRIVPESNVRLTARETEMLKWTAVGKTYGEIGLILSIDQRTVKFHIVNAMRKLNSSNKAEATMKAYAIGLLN
experiment-summary: QscR competitive antagonism reporter gene assay (β-gal) against DDHL in recombinant E. coli (pJN105Q)
measure-name: IC50 (nM)
Value expressed in nM; do not type the unit.

Specify IC50 for O=C(Cc1ccc(-c2ccccc2)cc1)N[C@H]1CCOC1=O [C18, 4-phenyl PHL] and stop.
30

###

test-target: LasR (Pseudomonas aeruginosa)
Construct: expressed in transfected cells; host or cells: E. coli DH5α (pJN105L pSC11), arabinose-induced
experiment-summary: cell-based
Type: cell-based
protocol-conditions: 5 μM synthetic ligand against 7.5 nM OdDHL; E. coli DH5α (pJN105L pSC11); normalized to OdDHL
Entries and their E. coli-LasR Inhibition [%] values follow.

Specify E. coli-LasR Inhibition [%] for O=C(CCCc1c[nH]c2ccccc12)N[C@@H]1CCOC1=O and stop.
13%

###

test-target: LuxR (Aliivibrio fischeri, UniProt P35327)
Construct: a Δ-luxI derivative of V. fischeri ES114, in which the native lux operon behaves as the bioluminescent reporter; endogenous in cells; host or cells: V. fischeri ES114 (Δ-luxI)
experiment-summary: cell-based
Type: cell-based, Vibrio fischeri
protocol-conditions: determined against 5 μM OHHL; read-out: LuxR IC50
measure-name: pIC50
Lab note: report pIC50 as minus log10 of the concentration in molar units, number only.

Specify pIC50 for O=C(Cc1ccc(C(F)(F)F)cc1)N[C@H]1CCOC1=O [B23, 4-trifluoromethyl PHL] and stop.
6.21

###

Entries and their inhibition at 10 µM values follow.
test-target: TraR (Agrobacterium tumefaciens, UniProt P33905)
Construct: These strains lack their AHL synthase (I) genes, but retain their native R genes; endogenous in cells; host or cells: A. tumefaciens WCF47 (Δ-traI) with PtraI-lacZ plasmid pCF372
Sequence (P33905 whole entry): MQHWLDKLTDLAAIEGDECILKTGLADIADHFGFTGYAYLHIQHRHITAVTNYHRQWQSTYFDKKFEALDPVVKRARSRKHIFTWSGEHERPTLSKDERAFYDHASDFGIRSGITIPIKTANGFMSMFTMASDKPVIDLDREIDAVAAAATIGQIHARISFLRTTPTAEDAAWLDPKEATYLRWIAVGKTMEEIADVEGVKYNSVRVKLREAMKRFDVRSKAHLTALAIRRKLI
experiment-summary: cell-based
protocol-conditions: read-out: A. tumefaciens-TraR Inhibition [%], 10 μM synthetic ligand against 100 nM OOHL; A. tumefaciens WCF47 (pCF372); normalized to OOHL
Value expressed in %; do not type the unit.

[
  {
    "molecule": "CCCC(=O)CC(=O)N[C@H]1CCOC1=O [compound 3]",
    "test-target": "TraR (Agrobacterium tumefaciens, UniProt P33905)",
    "measure-name": "inhibition at 10 µM",
    "unit-info": "%",
    "test-value": 89
  }
]

With those in mind, consider the next molecule.
Please indicate recorded inhibition at 10 µM of CCCCCCCCCC(=O)NC1CCOC1=O (centres unmarked) [A4, C10 AHL] measured with TraR (Agrobacterium tumefaciens, UniProt P33905).
92

###

test-target: LuxR (Aliivibrio fischeri)
Construct: a Δ-luxI derivative of V. fischeri ES114, in which the native lux operon behaves as the bioluminescent reporter; endogenous in cells; host or cells: V. fischeri ES114 (Δ-luxI)
experiment-summary: cell-based
Assay type: cell-based, Vibrio fischeri
protocol-conditions: read-out: V. fischeri-LuxR Inhibition [%], 5 μM synthetic ligand against 5 μM OHHL; V. fischeri ES114 (Δ-luxI); normalized to OHHL
measure-name: inhibition at 5 µM (%)
Value expressed in %; do not type the unit.

Solved cases below.
[
  {
    "compound": "O=C(Cc1ccc([N+](=O)[O-])cc1)NC1CCOC1=O (stereo not shown)",
    "test-target": "LuxR (Aliivibrio fischeri)",
    "measure-name": "inhibition at 5 µM",
    "test-value": 47
  },
  {
    "compound": "CCCCCCCCCCCC(=O)N[C@H]1CCOC1=O",
    "test-target": "LuxR (Aliivibrio fischeri)",
    "measure-name": "inhibition at 5 µM",
    "test-value": 73
  },
  {
    "compound": "CCCCCCCCCC(=O)NC1CCOC1=O (stereo not shown)",
    "test-target": "LuxR (Aliivibrio fischeri)",
    "measure-name": "inhibition at 5 µM",
    "test-value": 96
  }
]

Specify inhibition at 5 µM for CCCCCCCC(=O)N[C@H]1CCOC1=O and stop.
86

Specify inhibition at 5 µM for CCCCCC(=O)CC(=O)N[C@H]1CCOC1=O [compound 1, N-(3-oxo-octanoyl)-L-homoserine lactone, reference compound] and stop.
63

###

test-target: LasR (Pseudomonas aeruginosa, UniProt P25084)
Construct: expressed in transfected cells; host or cells: E. coli DH5α (pJN105L pSC11), arabinose-induced
experiment-summary: cell-based
Type: cell-based
protocol-conditions: read-out: LasR IC50; determined against 7.5 nM OdDHL
measure-name: IC50 (µM)
Value expressed in µM; do not type the unit.

Specify IC50 for O=C(Cc1ccc(Br)cc1)N[C@H]1CCOC1=O [compound 8, reference compound] and stop.
3.89

###

test-target: TraR (Agrobacterium tumefaciens, UniProt P33905)
Construct: These strains lack their AHL synthase (I) genes, but retain their native R genes; endogenous in cells; host or cells: A. tumefaciens WCF47 (Δ-traI) with PtraI-lacZ plasmid pCF372
experiment-summary: cell-based
protocol-conditions: A. tumefaciens-TraR; Library C primary antagonism screen
Entries and their Inhibition (%) values follow.
Value expressed in %; do not type the unit.

Solved cases below.
[
  {
    "compound": "COc1ccc(CC(=O)N[C@H]2CCOC2=O)cc1 [C24]",
    "test-target": "TraR (Agrobacterium tumefaciens, UniProt P33905)",
    "unit-info": "%",
    "test-value": 26
  },
  {
    "compound": "O=C(Cc1ccc(C(F)(F)F)cc1)N[C@H]1CCOC1=O [C20, 4-trifluoromethyl PHL]",
    "test-target": "TraR (Agrobacterium tumefaciens, UniProt P33905)",
    "unit-info": "%",
    "test-value": 92
  },
  {
    "compound": "CCOc1ccc(CC(=O)N[C@H]2CCOC2=O)cc1 [C25]",
    "test-target": "TraR (Agrobacterium tumefaciens, UniProt P33905)",
    "unit-info": "%",
    "test-value": 35
  }
]

With those in mind, consider the next compound.
Specify Inhibition (%) for O=C(Cc1ccc(-c2ccccc2)cc1)N[C@H]1CCOC1=O [C18, 4-phenyl PHL] and stop.
67

###

test-target: TraR (Agrobacterium tumefaciens)
Construct: These strains lack their AHL synthase (I) genes, but retain their native R genes; endogenous in cells; host or cells: A. tumefaciens WCF47 (Δ-traI) with PtraI-lacZ plasmid pCF372
experiment-summary: cell-based
protocol-conditions: TraR EC50
measure-name: pEC50
Lab note: report pEC50 as minus log10 of the concentration in molar units, number only.

Specify pEC50 for CCCCCC(=O)CC(=O)N[C@H]1CCOC1=O [compound 1, N-(3-oxo-octanoyl)-L-homoserine lactone, reference compound] and stop.
6.70

###

test-target: LasR (Pseudomonas aeruginosa)
Construct: expressed in transfected cells; host or cells: E. coli DH5α (pJN105L pSC11), arabinose-induced
experiment-summary: cell-based
protocol-conditions: read-out: LasR EC50
Entries and their EC50 values follow.
Value expressed in nM; do not type the unit.

Solved cases below.
[
  {
    "compound": "O=C(CC(=O)N[C@@H]1CCOC1=O)Cc1ccccc1 [A25]",
    "test-target": "LasR (Pseudomonas aeruginosa)",
    "unit-info": "nM",
    "EC50": 540
  },
  {
    "compound": "COc1ccccc1C1CCN(c2ccc(C=CC(=O)NC3CCOC3=O)cc2[N+](=O)[O-])CC1 (stereo not shown) [D18]",
    "test-target": "LasR (Pseudomonas aeruginosa)",
    "unit-info": "nM",
    "EC50": 470
  },
  {
    "compound": "CCCCCCCCCCCC(=O)N[C@H]1CCOC1=O [A5, C12 AHL]",
    "test-target": "LasR (Pseudomonas aeruginosa)",
    "unit-info": "nM",
    "EC50": 40
  }
]

Specify EC50 for O=C(CC(=O)N[C@@H]1CCOC1=O)Cc1ccccc1 [B2] and stop.
540
